# target-system: T1, recombinant C-terminally truncated RSV (A2 strain) F protein (RSV (A2 strain), UniProt P03420 26-524)
# T1 construct: extracellular domain; also called truncated F protein; extracellular domain of the F protein from RSV A2
# T1 sequence (P03420 26-109, chain 1 of 2): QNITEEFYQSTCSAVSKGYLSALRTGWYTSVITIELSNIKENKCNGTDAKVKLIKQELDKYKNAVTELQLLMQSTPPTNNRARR
# T1 sequence (P03420 137-524, chain 2 of 2): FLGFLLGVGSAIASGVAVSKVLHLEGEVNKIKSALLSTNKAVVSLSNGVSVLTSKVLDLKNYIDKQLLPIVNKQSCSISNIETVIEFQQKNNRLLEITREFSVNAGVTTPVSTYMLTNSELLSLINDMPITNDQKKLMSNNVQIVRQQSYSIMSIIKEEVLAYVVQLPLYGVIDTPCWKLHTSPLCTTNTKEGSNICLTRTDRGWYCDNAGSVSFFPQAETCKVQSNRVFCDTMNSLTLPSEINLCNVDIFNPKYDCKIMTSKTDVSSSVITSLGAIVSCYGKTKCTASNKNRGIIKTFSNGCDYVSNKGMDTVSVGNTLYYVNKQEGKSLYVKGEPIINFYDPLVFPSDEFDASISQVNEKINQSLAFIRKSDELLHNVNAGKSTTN
# protocol-text: SPR (BIAcore), Fab over immobilised F
recorded-metric: kon (M⁻¹ s⁻¹)

1. AFFF(1) Fab (Fab, V domains shown, also called AHH(1)) VH: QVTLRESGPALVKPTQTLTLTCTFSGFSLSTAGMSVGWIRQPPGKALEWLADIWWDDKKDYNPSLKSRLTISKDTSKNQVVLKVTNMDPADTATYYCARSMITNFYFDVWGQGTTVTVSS VL: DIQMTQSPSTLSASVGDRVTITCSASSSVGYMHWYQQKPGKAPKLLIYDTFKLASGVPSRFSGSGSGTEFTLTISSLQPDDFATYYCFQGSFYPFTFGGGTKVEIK = 134000
2. A12a6 Fab (Fab, V domains shown) VH: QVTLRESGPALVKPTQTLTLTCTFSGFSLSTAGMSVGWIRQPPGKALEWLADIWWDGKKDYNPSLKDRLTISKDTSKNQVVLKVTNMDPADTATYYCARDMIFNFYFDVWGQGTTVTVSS VL: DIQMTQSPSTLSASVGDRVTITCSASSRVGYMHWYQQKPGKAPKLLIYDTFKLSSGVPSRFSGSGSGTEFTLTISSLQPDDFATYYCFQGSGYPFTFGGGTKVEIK = 519000
